procedure.details: Permeability from apical to basolateral side of human Caco2 cells at 3 uM
Assay type: ADME, cell-based
recorded.conditions: Caco-2, read-out: permeability
Give Papp A→B at 3 µM for every item shown.

Q: Look at this molecule and give its reported Papp A→B at 3 µM. `O=C(CN1CCC[C@H](NS(=O)(=O)c2ccc3cc(Cl)ccc3c2)C1=O)N1C[C@@H]2C[C@H](C1)c1cccc(=O)n1C2`
Ans: 2.5 ×10⁻⁶ cm/s

Q: For `O=C(CN1CCC[C@H](NS(=O)(=O)c2ccc3cc(Cl)ccc3c2)C1=O)N1CC2CC(C1)CN(C(=O)C1CCNCC1)C2` then?
Ans: < 1.5 ×10⁻⁶ cm/s

Q: For `NC(=O)N1CC2CC(C1)CN(C(=O)CN1CCC[C@H](NS(=O)(=O)c3ccc4cc(Cl)ccc4c3)C1=O)C2` then?
Ans: < 1.5 ×10⁻⁶ cm/s

Q: For `NC(=O)C(=O)N1CC2CC(CN(C(=O)CN3CCC[C@H](NS(=O)(=O)c4ccc5cc(Cl)ccc5c4)C3=O)C2)C1` then?
Ans: < 1.5 ×10⁻⁶ cm/s

Q: For `CC(=O)N1CC2CC(C1)CN(C(=O)CN1CCC[C@H](NS(=O)(=O)c3ccc4cc(Cl)ccc4c3)C1=O)C2` then?
Ans: 7.3 ×10⁻⁶ cm/s

Q: For `Nc1[nH]ncc1C(=O)N1CC2CC(CN(C(=O)CN3CCC[C@H](NS(=O)(=O)c4ccc5cc(Cl)ccc5c4)C3=O)C2)C1` then?
Ans: < 1.5 ×10⁻⁶ cm/s

Q: For `CS(=O)(=O)N1CC2CC(CN(C(=O)CN3CCC[C@H](NS(=O)(=O)c4ccc5cc(Cl)ccc5c4)C3=O)C2)C1` then?
Ans: < 1.5 ×10⁻⁶ cm/s

Q: For `O=C(CN1CCC[C@H](NS(=O)(=O)c2ccc3cc(Cl)ccc3c2)C1=O)N1CC2CNCC(C2)C1` then?
Ans: < 1.5 ×10⁻⁶ cm/s

###

procedure.details: Half life in mouse liver microsomes at 0.5 uM at pH 7.4 in presence of NADPH
Type: ADME, Microsome
readout: half-life at 0.5 µM

Q: Look at this molecule and give its reported half-life at 0.5 µM. `O=C(CN1CCC[C@H](NS(=O)(=O)c2ccc3cc(Cl)ccc3c2)C1=O)N1C[C@@H]2C[C@H](C1)c1cccc(=O)n1C2`
Ans: < 2 min

Q: For `CC(=O)N1CC2CC(C1)CN(C(=O)CN1CCC[C@H](NS(=O)(=O)c3ccc4cc(Cl)ccc4c3)C1=O)C2` then?
Ans: < 2 min

###

Give half-life at 0.5 µM for every item shown.
procedure.details: Half life in cynomolgus monkey liver microsomes at 0.5 uM at pH 7.4 in presence of NADPH
Type: ADME, Macaca fascicularis, Microsome

Q: Look at this compound and give its reported half-life at 0.5 µM. `O=C(CN1CCC[C@H](NS(=O)(=O)c2ccc3cc(Cl)ccc3c2)C1=O)N1C[C@@H]2C[C@H](C1)c1cccc(=O)n1C2`
Ans: < 2 min

Q: For `CC(=O)N1CC2CC(C1)CN(C(=O)CN1CCC[C@H](NS(=O)(=O)c3ccc4cc(Cl)ccc4c3)C1=O)C2` then?
Ans: < 2 min

###

procedure.details: Half life in rat liver microsomes at 0.5 uM at pH 7.4 in presence of NADPH
Assay type: ADME, Microsome
readout: half-life at 0.5 µM

Q: Look at this compound and give its reported half-life at 0.5 µM. `O=C(CN1CCC[C@H](NS(=O)(=O)c2ccc3cc(Cl)ccc3c2)C1=O)N1C[C@@H]2C[C@H](C1)c1cccc(=O)n1C2`
Ans: < 2 min

Q: For `CC(=O)N1CC2CC(C1)CN(C(=O)CN1CCC[C@H](NS(=O)(=O)c3ccc4cc(Cl)ccc4c3)C1=O)C2` then?
Ans: < 2 min
